molecular target: T1, human BKB2R-derived epitope peptide (SEQ ID NO:73), PEG-biotin (human, also: PEG-biotin, site not given here); assay: BLI (Octet), peptide-PEG-biotin on streptavidin sensor, antibody 500 nM
T1 construct: also called immunogenic human BKB2R peptide fragment
T1 peptide: KEYSDEGHNVTAC
pKd: −log10 of the molar value. Where no end group is shown, it is not given here.
Parameter pKd: see the listing below.
assay-metric: pKd

binder="humanized anti-BKB2R antibody L1/H2 (antibody, human IgG2, kappa, V domains shown) VH: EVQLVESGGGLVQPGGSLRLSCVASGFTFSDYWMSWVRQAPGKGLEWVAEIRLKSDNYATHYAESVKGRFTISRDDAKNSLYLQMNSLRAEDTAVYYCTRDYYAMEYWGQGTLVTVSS VL: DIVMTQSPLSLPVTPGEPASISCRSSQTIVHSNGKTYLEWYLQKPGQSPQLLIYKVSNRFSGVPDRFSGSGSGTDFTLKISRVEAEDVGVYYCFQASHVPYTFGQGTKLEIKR" numeric_value=6.39
binder="humanized anti-BKB2R antibody H38/L38 (antibody, human IgG2, kappa, V domains shown) VH: EVQLLESGGGLVQPGGSLKLSCAVSGFTFSDYWMSWVRQAPGKGLEWVSEIRLKSDNYATHYADSVKGRFTISRDDSKNTLYLQMNSLRAEDTAVYYCTRDYYAMEYWGQGTLVTVSS VL: DIVMTQTPLSLPVTSGEPASISCRSSQTIVHSNGKTYLDWYLQKPGQSPQLLIYKVSNRASGVPDRFSGSGSGTDFTLKISRVEAEDVGVYYCFQASHVPYTFGGGTKVEIKR" numeric_value=8.60
